System: arrhythmia induced by an intravenous administration of calcium chloride
Test: Antiarrhythmic activity on a model of arrhythmia induced by intravenous calcium chloride (antagonism to calcium) in mice
Assay type: in vivo
Settings: white mice; intraperitoneal dose 5 mg/kg, 20-40 minutes before
recorded-metric: Dose of calcium chloride causing arrythmia in animals under experiment

Worked examples follow.
CCOC(=O)CCN(C(=O)NC)N(C)C [I-8]
99,4 mg/kg
COC(=O)CC(C(=O)OC)N(C(=O)c1ccccc1)N(C)C (stereo not drawn) [I-58]
97,0 mg/kg
CNC(=O)N(CCC#N)N(C)C [I-21]
87,5 mg/kg
CCCCCCCCCCCCCCCC(=O)N(CCC(=O)OC)N(C)C [I-27]
92,7 mg/kg

-- ask Fill in the blank: the reported Dose of calcium chloride causing arrythmia in animals under experiment of C=CC(=O)N(CCC(=O)OC)N(C)C [I-34] is ____.
-- reply 108,4 mg/kg

-- ask Also CN(C)N(CCC(=O)O)C(=O)Nc1ccccc1 [I-64] ?
-- reply 98 mg/kg

----------
Experiment: in vivo
Conditions: mouse, in vivo, ip
With a cut-off of 2000 mg/kg, any LD50 at 240 h strictly below it is called Fulfilled; any LD50 at 240 h meeting it or above is called Not fulfilled.

Below are worked cases with known answers.
COC(=O)CCN(C(=O)c1ccccc1)N(C)C [I-29]
Not fulfilled
CNC(=S)N(CCC(=O)O)N(C)C [I-59]
Fulfilled
COC(=O)CCN(C(=O)c1ccccc1COC(=O)c1ccccc1)N(C)C [I-33]
Not fulfilled
CN(C)N(CCC#N)C(=O)Nc1ccccc1 [I-61]
Fulfilled
COC(=O)CC(C(=O)OC)N(C(=O)c1ccccc1)N(C)C (stereo not drawn) [I-58]
Not fulfilled

As a next step, examine the molecule that follows.
-- ask Please check: LD50 at 240 h for CCOC(=O)CCN(C(=O)c1ccc(Br)cc1)N(C)C [I-46] , strictly under 2000 mg/kg or not?
-- reply Fulfilled

----------
Items are presented alongside their recorded Relative toxisity to quinidine.
Tested on: white mice
Experiment: in vivo
Conditions: mouse, in vivo, ip, 14400 min

-- ask Fill in the blank: the reported Relative toxisity to quinidine of CCCCCCCCCCCCCCCC(=O)N(CCC(=O)OC)N(C)C [I-27] is ____.
-- reply 15,2

-- ask Also C=CC(=O)N(CCC(=O)OC)N(C)C [I-34] ?
-- reply 6,2

-- ask Also COC(=O)CCN(C(=O)c1ccccc1)N(C)C [I-29] ?
-- reply 22,4

-- ask Also C=CCNC(=S)N(CC(C)C(=O)OC)N(C)C (stereo not drawn) [I-13] ?
-- reply 7,8

-- ask Also CCOC(=O)CCN(C(=O)c1ccccc1F)N(C)C [I-45] ?
-- reply 9,4

-- ask Also COC(=O)CCN(C(=O)Nc1ccc(NC(=O)N(CCC(=O)OC)N(C)C)cc1)N(C)C [I-4] ?
-- reply 51,3

-- ask Also COC(=O)CCN(C(=O)Nc1ccccc1)N(C)C [I-3] ?
-- reply 8,6

-- ask Also CCOC(=O)CCN(C(=S)Nc1ccccc1)N(C)C [I-10] ?
-- reply 11,5

-- ask Also COC(=O)CCN(C(=O)c1ccc(Br)cc1)N(C)C [I-32] ?
-- reply 10,7

-- ask Also CN(C)N(CCC(=O)O)C(=O)Nc1ccccc1 [I-64] ?
-- reply 11,2

-- ask Also COC(=O)CC(C(=O)OC)N(C(=O)Nc1ccccc1)N(C)C (stereo not drawn) [I-56] ?
-- reply 20,5

-- ask Also CN(C)N(CCC(N)=O)C(=O)c1ccccc1 [I-51] ?
-- reply 20,1

-- ask Also CNC(=O)N(CCC#N)N(C)C [I-21] ?
-- reply 11,5

-- ask Also CNC(=O)N(CCC(=O)OC)N(C)C [I-2] ?
-- reply 14,7

-- ask Also CNC(=S)N(CCC(=O)OC)N(C)C [I-5] ?
-- reply 25,3

-- ask Also CN(C)N(CCC#N)C(=O)c1ccccc1 [I-54] ?
-- reply 6,6

-- ask Also CN(C)N(CCC#N)C(=S)Nc1ccccc1 [I-23] ?
-- reply 10,7

-- ask Also COC(=O)CCN(C(=O)Cc1ccccc1)N(C)C [I-30] ?
-- reply 7,6

-- ask Also CCCCCCCCCCCCCCCCCC(=O)N(CCC(=O)OC)N(C)C [I-28] ?
-- reply 39,4

-- ask Also CNC(=O)N(C(CC(=O)OC)C(=O)OC)N(C)C (stereo not drawn) [I-55] ?
-- reply 14,7

-- ask Also CNC(=O)N(CCC(N)=O)N(C)C [I-15] ?
-- reply 23

-- ask Also CCCCCC(=O)N(CC(C)C(=O)OC)N(C)C (stereo not drawn) [I-38] ?
-- reply 12,3

-- ask Also CCCCCC(=O)N(CCC(N)=O)N(C)C [I-49] ?
-- reply 6,1

-- ask Also CCOC(=O)CCN(C(=O)c1ccc(Br)cc1)N(C)C [I-46] ?
-- reply 9,6
